From: PubChem BioAssay (NCATS)

- assay.remarks: qHTS for identification of novel therapeutic agents for treatment of microphthalmiaassociated transcription factor (MiT) renal cell carcinoma (RCC) (AID 1963991); also: potency is read from the fitted curve at half-maximal effect
- settings: TFE3-RCC UOK109 viability, CellTiter-Glo, 48 h; active = Z-AUC below -0.8 in all three lines
Inconclusive results are not listed. Activity calls are given as the source filed them.
Potency listing for selected molecules.

Write down Potency measured for item "Cc1[nH]c(C=C2C(=O)Nc3ccccc32)c(C)c1CCC(=O)O"
833 nM (active)

Continue with the molecule presented below.
Write down Potency measured for item "CN[C@@H]1C[C@H]2O[C@@](C)([C@H]1OC)n1c3ccccc3c3c4c(c5c6ccccc6n2c5c31)C(=O)N[C@H]4O"
1480 nM (active)
